Measurement Protocol: Half life in beagle dog at 5 mg/kg, iv as 30 mins infusion
Assay type: ADME, organism-based, Canis lupus familiaris
Parameters: dose 5 mg/kg, route intravenous
Conditions: in vivo
Assay Metric: half-life
# do not omit the unit; it follows the number

**Query** Find the recorded half-life belonging to COC(=O)N[C@H](C(=O)N1CCCC1c1ncc(C#CC#Cc2ccc(-c3cnc(C4CCCN4C(=O)[C@@H](NC(=O)OC)C(C)C)[nH]3)cc2)[nH]1)C(C)C.Cl (single isomer, unassigned; 13a) and report it.
**Result** 294 min

====

Measurement Protocol: Lipophilicity, log D of the compound at pH 7.4
Type: physicochemical
Conditions: buffer
Assay Metric: logD
Quick one: just the number, no unit, thanks!

**Query** Find the recorded logD belonging to COC(=O)N[C@H](C(=O)N1CCCC1c1ncc(C#CC#Cc2ccc(-c3cnc(C4CCCN4C(=O)[C@@H](NC(=O)OC)C(C)C)[nH]3)cc2)[nH]1)C(C)C.Cl (single isomer, unassigned; 13a) and report it.
**Result** 4.46

====

Study System: Cytochrome P450 3A4 (Homo sapiens, UniProt P08684)
Sequence (P08684 whole entry): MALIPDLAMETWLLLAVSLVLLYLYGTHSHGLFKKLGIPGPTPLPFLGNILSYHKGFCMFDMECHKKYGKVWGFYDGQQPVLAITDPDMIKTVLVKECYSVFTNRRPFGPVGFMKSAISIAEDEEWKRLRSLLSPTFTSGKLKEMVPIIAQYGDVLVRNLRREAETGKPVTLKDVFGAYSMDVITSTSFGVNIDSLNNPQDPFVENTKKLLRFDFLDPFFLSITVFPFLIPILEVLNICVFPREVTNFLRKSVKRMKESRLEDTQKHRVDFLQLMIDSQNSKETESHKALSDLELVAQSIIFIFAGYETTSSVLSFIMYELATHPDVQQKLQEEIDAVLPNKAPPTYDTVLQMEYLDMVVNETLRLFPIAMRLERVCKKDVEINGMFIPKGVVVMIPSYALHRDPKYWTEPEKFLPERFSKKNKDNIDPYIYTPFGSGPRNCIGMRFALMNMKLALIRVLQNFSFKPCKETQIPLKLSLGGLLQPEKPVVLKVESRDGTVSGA
pIC50: −log10 of the molar value.
Assay Metric: pIC50

**Query** Test system Cytochrome P450 3A4 (Homo sapiens, UniProt P08684); read-out pIC50; what value for COC(=O)N[C@H](C(=O)N1CCCC1c1ncc(C#CC#Cc2ccc(-c3cnc(C4CCCN4C(=O)[C@@H](NC(=O)OC)C(C)C)[nH]3)cc2)[nH]1)C(C)C.Cl (single isomer, unassigned; 13a) ?
**Result** < 5.00

====

Measurement Protocol: Solubility of the compound in dimethyl sulfoxide
Assay type: physicochemical
Assay Metric: solubility

**Query** Find the recorded solubility belonging to COC(=O)N[C@H](C(=O)N1CCCC1c1ncc(C#CC#Cc2ccc(-c3cnc(C4CCCN4C(=O)[C@@H](NC(=O)OC)C(C)C)[nH]3)cc2)[nH]1)C(C)C.Cl (single isomer, unassigned; 13a) and report it.
**Result** ≥ 10 µM

====

half-life values by entry
Measurement Protocol: Half life in beagle dog at 1 mg/kg, iv as 30 mins infusion
Assay type: ADME, organism-based, Canis lupus familiaris
Parameters: dose 1 mg/kg, route intravenous
Conditions: in vivo
Give the number; min is assumed, so skip it.

1. COC(=O)N[C@@H](C(=O)N1CCC[C@H]1c1ncc(-c2ccc3c(c2)O[C@@H](c2ccccc2)n2c-3cc3cc(-c4cnc([C@@H]5CCCN5C(=O)[C@H](NC(=O)OC)C(C)C)[nH]4)ccc32)[nH]1)C(C)C ... 282

--- query ---
**Query** Find the recorded half-life belonging to "c1cc2oc(-c3ccc(-c4ncc([C@@H]5CCCN5)[nH]4)cc3)cc2cc1-c1cnc([C@@H]2CCCN2)[nH]1" and report it.
**Result** 462

====

Measurement Protocol: Cytotoxicity against West Nile virus NY99 infected african green monkey Vero 76 cells after 3 days
Assay type: cell-based
Conditions: chlorocebus sabaeus, Vero 76 cells infected with West Nile virus NY99
Assay Metric: CC50 at 72 h

**Query** Find the recorded CC50 at 72 h belonging to COC(=O)N[C@H](C(=O)N1CCCC1c1ncc(C#CC#Cc2ccc(-c3cnc(C4CCCN4C(=O)[C@@H](NC(=O)OC)C(C)C)[nH]3)cc2)[nH]1)C(C)C.Cl (single isomer, unassigned; 13a) and report it.
**Result** 26.3 µM
